Biological target: PI3K beta (Homo sapiens)
Construct: for the full-length p110-b subunit are generated and fused by overlapping PCR; p85(iSH2) fusion partner (see partner chain) (N); His tag (C); Tn5 (Trichoplusia ni) or TiniPro insect cells
Sequence (P42338 with tags, fused parts or gaps limits assumed): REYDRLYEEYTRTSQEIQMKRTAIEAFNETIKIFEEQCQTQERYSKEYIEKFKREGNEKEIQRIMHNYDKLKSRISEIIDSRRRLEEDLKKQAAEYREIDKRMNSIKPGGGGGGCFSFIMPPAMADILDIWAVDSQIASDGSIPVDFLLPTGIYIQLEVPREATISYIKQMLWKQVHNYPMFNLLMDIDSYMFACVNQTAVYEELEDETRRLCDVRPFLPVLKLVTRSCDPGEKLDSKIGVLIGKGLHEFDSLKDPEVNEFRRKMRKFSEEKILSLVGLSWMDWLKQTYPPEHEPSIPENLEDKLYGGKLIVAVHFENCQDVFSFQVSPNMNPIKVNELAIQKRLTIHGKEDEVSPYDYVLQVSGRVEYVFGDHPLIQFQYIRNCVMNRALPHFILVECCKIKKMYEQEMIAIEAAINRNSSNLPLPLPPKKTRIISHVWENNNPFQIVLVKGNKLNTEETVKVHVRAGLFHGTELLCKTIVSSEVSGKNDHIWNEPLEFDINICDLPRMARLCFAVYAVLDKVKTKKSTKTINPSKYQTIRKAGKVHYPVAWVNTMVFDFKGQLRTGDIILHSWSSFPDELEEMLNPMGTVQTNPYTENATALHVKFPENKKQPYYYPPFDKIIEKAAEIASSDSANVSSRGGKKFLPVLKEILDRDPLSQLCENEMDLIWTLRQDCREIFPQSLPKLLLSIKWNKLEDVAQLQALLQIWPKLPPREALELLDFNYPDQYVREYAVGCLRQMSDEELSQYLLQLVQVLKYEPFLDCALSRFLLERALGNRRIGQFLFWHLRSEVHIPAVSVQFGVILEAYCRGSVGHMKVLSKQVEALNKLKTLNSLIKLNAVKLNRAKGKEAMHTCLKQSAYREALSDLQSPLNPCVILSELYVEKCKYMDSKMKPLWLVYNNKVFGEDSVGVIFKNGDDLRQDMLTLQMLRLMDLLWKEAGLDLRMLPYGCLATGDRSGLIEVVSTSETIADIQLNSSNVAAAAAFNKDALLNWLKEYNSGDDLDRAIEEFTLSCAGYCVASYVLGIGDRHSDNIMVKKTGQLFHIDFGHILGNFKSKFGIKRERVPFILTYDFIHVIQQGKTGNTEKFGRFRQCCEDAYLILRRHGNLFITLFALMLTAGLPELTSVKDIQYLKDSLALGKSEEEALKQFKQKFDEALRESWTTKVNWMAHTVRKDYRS
Experiment: PI3K beta kinase assay (Kinase-Glo luminescence)
Assign IC50 to each entry below.

Check out these entries, answers already filled in.
> print(dat)
                                   compound  experimental.result
1  CCOc1ccc(-c2ccc3ncc4c(c3c2)n(-c2cn(CC)nc2C)c(=O)n4C)cc1OCC [Example 27.1]               122 nM
2  CCOc1cc(-c2ccc3ncc4c(c3c2)n(-c2cn(C)nc2C)c(=O)n4C)cnc1CO [Example 243]                47 nM
3  [2H]C([2H])([2H])OCc1ncc(-c2ccc3ncc4c(c3c2)n(-c2cn(C)nc2Cl)c(=O)n4C)cc1OC [Example 199]                27 nM
4  CCNc1cc(-c2ccc3ncc4c(c3c2)n(-c2c(C)nn(C)c2C)c(=O)n4C)cnc1Cl [Example 153.1]                14 nM

Record IC50 per entry; entries follow.
1. CCn1c(=O)n(C)c2ncc(-c3ccc4ncc5c(c4c3)n(-c3cn(C)nc3C)c(=O)n5C)cc21 [Example 68]
2. CCn1cc(-n2c(=O)n(C)c3cnc4ccc(-c5ccc(OC)c(OC)c5)nc4c32)c(C)n1 [Example 254]

Given back:
61 nM
62 nM

Provide each entry's IC50 from the list below.
1. Cc1nn(C)cc1-n1c(=O)n(C)c2cnc3ccc(-c4cnc(F)c(N(C)C)c4)cc3c21 [Example 151]
2. CCn1cc(-n2c(=O)n(C)c3cnc4ccc(-c5cnc(COC)c(NC)c5)cc4c32)c(C)n1 [Example 160.2]
3. CCCOc1ccc(-c2ccc3ncc4c(c3c2)n(-c2cn(C)nc2C)c(=O)n4C)cn1 [Example 55]
4. Cc1nn(C)cc1-n1c(=O)n(C)c2cnc3ccc(-c4cncc(NS(C)(=O)=O)c4)cc3c21 [Example 120]
5. COc1ccc(-c2ccc3ncc4[nH]c(=O)n(-c5cn(C)nc5C)c4c3c2)cc1OC [Example 111]
6. Cc1nn(C)cc1-n1c(=O)n(C)c2cnc3ccc(-c4cncc(N5CCC5)c4)cc3c21 [Example 179]

Given back:
1. 21 nM
2. 130 nM
3. 951 nM
4. 18 nM
5. 41 nM
6. 130 nM
